Reported CC50 at 24 h values are given for each entry in this list.
- test_name: in vitro
- measurement_parameters: rat, gh3-tre-luc cells, AC50 (uM) modified / 1000
Counter-ions that a name gives are not always drawn.

Examples with answers:
[[record]]
compound = "CCC(C)C(=O)OCCc1ccccc1 (stereo not shown) [2-Phenylethyl 2-methylbutanoate]"
result = "> 90 µM"

[[record]]
compound = "C=CCCCCCCCCC(=O)OCCCC [Butyl undec-10-enoate]"
result = "> 90 µM"

[[record]]
compound = "NC(=O)C(Cl)(Cl)Cl [2,2,2-Trichloroacetamide]"
result = "> 90 µM"

[[record]]
compound = "OCCN1C[C@H](O)[C@@H](O)[C@H](O)[C@H]1CO"
result = "> 50 µM"

[[record]]
compound = "C=CC(=O)OCCCCCCCC [Octyl prop-2-enoate]"
result = "> 90 µM"


input: Look up CC50 at 24 h: CCN(CC)CCOC(=O)c1cccnc1 [Nicametate citrate]
output: > 50 µM

input: For CCC(=O)CC , what is its reported CC50 at 24 h?
output: > 90 µM

input: What CC50 at 24 h value was documented for this compound, O=c1oc2ccccc2c(O)c1Cc1c(O)c2ccccc2oc1=O ?
output: > 20 µM

input: If you can, please state the reported CC50 at 24 h value of O=C1NS(=O)(=O)c2ccccc21 [Sodium saccharin] .
output: > 90 µM

input: Reported CC50 at 24 h, compound CC(C)[C@@H](C)/C=C/[C@@H](C)[C@H]1CC[C@H]2/C(=C/C=C3\C[C@@H](O)CC[C@@H]3C)CCC[C@]12C [Dihydrotachysterol] : ____
output: > 50 µM

These data points were gathered from paper PMC6792352.
